These data points were gathered from patent US7973075B2.

Kindly state Ki for each of the entries shown.
Test System: KA2 (Rattus norvegicus, UniProt Q63273)
Construct: expressed in transfected cells; host or cells: HEK-293-T/17
Sequence (Q63273 15-979): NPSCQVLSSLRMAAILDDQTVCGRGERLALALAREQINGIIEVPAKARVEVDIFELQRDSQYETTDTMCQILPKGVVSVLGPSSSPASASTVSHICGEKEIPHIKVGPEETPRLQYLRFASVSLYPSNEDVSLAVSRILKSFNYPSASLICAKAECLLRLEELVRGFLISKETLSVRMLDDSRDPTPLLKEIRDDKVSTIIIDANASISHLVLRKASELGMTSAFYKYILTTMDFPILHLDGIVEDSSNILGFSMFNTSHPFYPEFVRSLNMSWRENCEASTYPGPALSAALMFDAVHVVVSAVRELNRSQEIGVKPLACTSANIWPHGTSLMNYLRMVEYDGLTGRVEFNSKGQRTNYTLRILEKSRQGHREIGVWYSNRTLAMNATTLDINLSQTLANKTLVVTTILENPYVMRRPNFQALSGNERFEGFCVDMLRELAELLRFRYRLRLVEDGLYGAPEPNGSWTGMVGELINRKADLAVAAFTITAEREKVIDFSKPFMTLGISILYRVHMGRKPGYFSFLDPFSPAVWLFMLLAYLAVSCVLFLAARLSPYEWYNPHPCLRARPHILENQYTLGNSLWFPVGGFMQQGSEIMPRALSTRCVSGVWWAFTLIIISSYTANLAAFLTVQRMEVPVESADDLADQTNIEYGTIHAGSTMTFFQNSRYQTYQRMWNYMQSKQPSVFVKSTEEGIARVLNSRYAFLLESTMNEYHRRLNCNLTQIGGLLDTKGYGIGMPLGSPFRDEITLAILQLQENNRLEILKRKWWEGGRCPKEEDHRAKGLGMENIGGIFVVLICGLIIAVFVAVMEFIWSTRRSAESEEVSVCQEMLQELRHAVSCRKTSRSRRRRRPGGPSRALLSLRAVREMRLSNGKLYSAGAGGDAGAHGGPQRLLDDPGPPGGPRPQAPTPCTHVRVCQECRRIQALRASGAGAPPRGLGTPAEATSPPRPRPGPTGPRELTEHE
Assay Overview: Radioligand binding ([3H]kainate displacement), HEK-293-T/17 membranes, Example 2
Condition Summary: [3H]kainate displacement; Cheng-Prusoff; read-out: Ki KA2

q: Which Ki is reported with KA2 (Rattus norvegicus, UniProt Q63273) for this entry: NC(CC1(C(=O)O)CC2OCC(O)C(O)C2O1)C(=O)O (stereo not drawn) [8-epi-neoDH, 8-epi-neodysiherbaine] ?
a: >100 µM

q: Same for N[C@@H](C[C@]1(C(=O)O)C[C@H]2OCC[C@@H](O)[C@H]2O1)C(=O)O [9-deoxy-neoDH]
a: > 100 µM

q: Same for NC(CC1(C(=O)O)CC2OCC(O)C(O)C2O1)C(=O)O (stereo not drawn) [9-epi-neoDH, 9-epi-neodysiherbaine]
a: >100 µM

q: Same for NC(CC1(C(=O)O)CC2OCC(F)C(O)C2O1)C(=O)O (stereo not drawn) [9-F-8-epi-neoDH]
a: >100 µM

q: Same for N[C@@H](C[C@@]1(C(=O)O)CC2OCC(O)C(O)C2O1)C(=O)O (single isomer, unassigned) [2,4-epi-neoDH, 2,4-epi-neodysiherbaine]
a: > 100 µM

q: Same for NC(CC1(C(=O)O)CC2OCC(O)C(O)C2O1)C(=O)O (stereo not drawn) [8,9-epi-neoDH, 8,9-epi-neodysiherbaine]
a: >100 µM

q: Same for N[C@@H](C[C@@]1(C(=O)O)CC2OCC(O)C(O)C2O1)C(=O)O (single isomer, unassigned) [4-epi-neoDH, 4-epi-neodysiherbaine]
a: ~30 µM

###

Test System: GluR5 (Rattus norvegicus, UniProt P22756)
Construct: expressed in transfected cells; HEK 293 (patch clamp)
Sequence (P22756 with tags, fused parts or gaps isoform P22756-2): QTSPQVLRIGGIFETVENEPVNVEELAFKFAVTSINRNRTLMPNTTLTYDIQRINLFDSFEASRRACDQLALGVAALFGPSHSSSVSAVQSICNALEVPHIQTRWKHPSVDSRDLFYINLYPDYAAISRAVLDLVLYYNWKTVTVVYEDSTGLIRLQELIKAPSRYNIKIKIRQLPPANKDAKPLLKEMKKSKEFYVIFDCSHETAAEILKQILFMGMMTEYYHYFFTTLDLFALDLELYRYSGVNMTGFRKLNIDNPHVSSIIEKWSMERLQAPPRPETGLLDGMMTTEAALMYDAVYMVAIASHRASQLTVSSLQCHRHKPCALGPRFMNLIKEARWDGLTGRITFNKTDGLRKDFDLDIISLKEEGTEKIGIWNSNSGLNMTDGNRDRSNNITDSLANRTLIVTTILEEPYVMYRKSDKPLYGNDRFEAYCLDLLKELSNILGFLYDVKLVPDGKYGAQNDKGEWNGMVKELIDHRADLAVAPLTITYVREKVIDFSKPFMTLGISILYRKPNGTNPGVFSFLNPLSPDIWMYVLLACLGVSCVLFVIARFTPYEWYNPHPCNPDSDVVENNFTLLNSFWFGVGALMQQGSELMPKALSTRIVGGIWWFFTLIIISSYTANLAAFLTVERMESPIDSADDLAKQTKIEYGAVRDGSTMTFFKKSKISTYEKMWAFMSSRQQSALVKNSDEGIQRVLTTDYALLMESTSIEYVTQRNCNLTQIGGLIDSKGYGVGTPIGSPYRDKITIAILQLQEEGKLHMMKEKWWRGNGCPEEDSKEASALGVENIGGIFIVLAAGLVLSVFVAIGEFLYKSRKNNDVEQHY
Assay Overview: Radioligand displacement ([3H]kainate), Example 1
Assay type: binding
Condition Summary: Table 2; read-out: GluR5 binding affinity (displacement of [3H]kainate)
Measure Name: pKi
pKi is defined as minus the log10 of a concentration measured in mol/L.

q: If you can, please state the reported pKi value of NC(CC1(C(=O)O)CC2OCC(O)C(O)C2O1)C(=O)O (stereo not drawn) [8,9-epi-neoDH, 8,9-epi-neodysiherbaine] .
a: 4.32

###

Test System: GluR7 (Rattus norvegicus, UniProt P42264)
Construct: expressed in transfected cells; host or cells: COS-7 or HEK-T/17
Sequence (P42264 32-919): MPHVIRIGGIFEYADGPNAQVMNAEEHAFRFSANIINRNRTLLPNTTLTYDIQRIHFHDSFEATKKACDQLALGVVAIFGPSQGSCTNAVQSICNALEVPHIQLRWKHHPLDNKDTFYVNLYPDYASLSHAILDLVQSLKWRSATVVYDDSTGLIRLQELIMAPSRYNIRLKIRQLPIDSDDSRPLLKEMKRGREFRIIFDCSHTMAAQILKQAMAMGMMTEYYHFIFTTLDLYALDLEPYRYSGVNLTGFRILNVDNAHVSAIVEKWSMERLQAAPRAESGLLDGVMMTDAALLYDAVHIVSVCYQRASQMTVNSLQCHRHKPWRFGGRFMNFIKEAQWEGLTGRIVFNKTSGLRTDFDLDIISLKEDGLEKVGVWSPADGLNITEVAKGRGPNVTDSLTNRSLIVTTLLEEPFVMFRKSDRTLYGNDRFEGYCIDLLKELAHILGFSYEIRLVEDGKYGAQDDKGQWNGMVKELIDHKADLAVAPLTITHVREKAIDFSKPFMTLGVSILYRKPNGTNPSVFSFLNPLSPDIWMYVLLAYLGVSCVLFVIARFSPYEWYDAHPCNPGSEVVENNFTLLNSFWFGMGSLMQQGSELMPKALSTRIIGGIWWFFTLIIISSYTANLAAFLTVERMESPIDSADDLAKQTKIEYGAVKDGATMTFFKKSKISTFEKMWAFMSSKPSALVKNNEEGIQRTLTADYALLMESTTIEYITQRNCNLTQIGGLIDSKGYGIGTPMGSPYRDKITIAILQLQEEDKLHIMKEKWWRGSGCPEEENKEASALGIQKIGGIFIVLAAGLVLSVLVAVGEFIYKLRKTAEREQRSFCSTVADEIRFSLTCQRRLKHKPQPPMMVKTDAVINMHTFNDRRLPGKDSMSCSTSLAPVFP
Assay Overview: Radioligand displacement ([3H]kainate), Example 1
Format: binding
Measure Name: pKi
pKi is defined as minus the log10 of a concentration measured in mol/L.

q: Which pKi is reported with GluR7 (Rattus norvegicus, UniProt P42264) for this entry: N[C@@H](C[C@]1(C(=O)O)C[C@H]2OC[C@@H](O)C[C@H]2O1)C(=O)O [8-deoxy-neoDH] ?
a: 4.68

###

Test System: GluR1(i) (Rattus norvegicus)
Construct: expressed in transfected cells; host or cells: HEK-293-T/17
Sequence (P19490 19-907 isoform P19490-2 limits assumed): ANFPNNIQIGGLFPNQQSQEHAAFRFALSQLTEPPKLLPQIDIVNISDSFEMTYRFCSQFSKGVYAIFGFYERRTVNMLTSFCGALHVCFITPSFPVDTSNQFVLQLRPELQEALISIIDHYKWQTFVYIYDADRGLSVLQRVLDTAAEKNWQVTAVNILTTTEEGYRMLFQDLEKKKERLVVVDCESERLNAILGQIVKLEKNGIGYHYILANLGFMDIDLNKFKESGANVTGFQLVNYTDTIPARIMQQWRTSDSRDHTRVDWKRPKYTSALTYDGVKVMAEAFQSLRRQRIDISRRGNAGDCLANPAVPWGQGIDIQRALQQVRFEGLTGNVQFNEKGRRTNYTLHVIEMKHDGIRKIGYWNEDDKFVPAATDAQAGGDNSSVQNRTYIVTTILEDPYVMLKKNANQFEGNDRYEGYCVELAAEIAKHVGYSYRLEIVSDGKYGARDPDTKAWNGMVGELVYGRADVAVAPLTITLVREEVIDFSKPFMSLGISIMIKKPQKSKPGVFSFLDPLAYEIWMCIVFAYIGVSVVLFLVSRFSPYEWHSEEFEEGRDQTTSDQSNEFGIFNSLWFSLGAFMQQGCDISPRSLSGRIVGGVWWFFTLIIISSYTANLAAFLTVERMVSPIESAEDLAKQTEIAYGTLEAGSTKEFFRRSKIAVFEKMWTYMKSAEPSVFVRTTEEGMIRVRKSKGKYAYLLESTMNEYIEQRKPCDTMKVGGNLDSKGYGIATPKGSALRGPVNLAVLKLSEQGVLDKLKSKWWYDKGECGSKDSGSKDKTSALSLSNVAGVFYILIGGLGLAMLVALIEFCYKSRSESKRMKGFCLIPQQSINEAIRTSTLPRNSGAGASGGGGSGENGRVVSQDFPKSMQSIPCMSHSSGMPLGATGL
Assay Overview: Radioligand binding ([3H]AMPA displacement), HEK-293-T/17 membranes, Example 2
Condition Summary: Cheng-Prusoff, read-out: Ki GluR1(i)
Kindly state Ki for each of the entries shown.

q: If you can, please state the reported Ki value of NC(CC1(C(=O)O)CC2OCC(O)C(O)C2O1)C(=O)O (stereo not drawn) [8,9-epi-neoDH, 8,9-epi-neodysiherbaine] .
a: > 100 µM

q: Same for NC(CC1(C(=O)O)CC2OCC(O)C(O)C2O1)C(=O)O (stereo not drawn) [9-epi-neoDH, 9-epi-neodysiherbaine]
a: > 100 µM

q: Same for N[C@@H](C[C@@]1(C(=O)O)CC2OCC(O)C(O)C2O1)C(=O)O (single isomer, unassigned) [4-epi-neoDH, 4-epi-neodysiherbaine]
a: > 30 µM

q: Same for NC(CC1(C(=O)O)CC2OCC(F)C(O)C2O1)C(=O)O (stereo not drawn) [9-F-8-epi-neoDH]
a: > 100 µM

q: Same for N[C@@H](C[C@@]1(C(=O)O)CC2OCC(O)C(O)C2O1)C(=O)O (single isomer, unassigned) [2,4-epi-neoDH, 2,4-epi-neodysiherbaine]
a: > 100 µM

q: Same for NC(CC1(C(=O)O)CC2OCC(O)C(O)C2O1)C(=O)O (stereo not drawn) [8-epi-neoDH, 8-epi-neodysiherbaine]
a: 16 µM

q: Same for N[C@@H](C[C@]1(C(=O)O)C[C@H]2OCC[C@@H](O)[C@H]2O1)C(=O)O [9-deoxy-neoDH]
a: > 100 µM

###

Kindly state Ki for each of the entries shown.
Test System: GluR7 (Rattus norvegicus)
Construct: expressed in transfected cells; host or cells: COS-7 or HEK-T/17
Assay Overview: Radioligand displacement ([3H]kainate), Example 1
Format: binding
Condition Summary: Tables 1-2; read-out: GluR7 binding affinity (displacement of [3H]kainate)

q: If you can, please state the reported Ki value of NC(CC1(C(=O)O)CC2OCC(O)C(O)C2O1)C(=O)O (stereo not drawn) [8,9-epi-neoDH, 8,9-epi-neodysiherbaine] .
a: > 100 µM

q: Same for N[C@@H](C[C@]1(C(=O)O)C[C@H]2OCC[C@@H](O)[C@H]2O1)C(=O)O
a: > 100 µM

q: Same for NC(CC1(C(=O)O)CC2OCC(O)C(O)C2O1)C(=O)O (stereo not drawn) [9-epi-neoDH, 9-epi-neodysiherbaine]
a: > 100 µM

###

Test System: GluR2 (Rattus norvegicus, UniProt P19491)
Construct: expressed in transfected cells; host or cells: COS-7 or HEK-T/17
Sequence (P19491 22-883 isoform P19491-2 limits assumed): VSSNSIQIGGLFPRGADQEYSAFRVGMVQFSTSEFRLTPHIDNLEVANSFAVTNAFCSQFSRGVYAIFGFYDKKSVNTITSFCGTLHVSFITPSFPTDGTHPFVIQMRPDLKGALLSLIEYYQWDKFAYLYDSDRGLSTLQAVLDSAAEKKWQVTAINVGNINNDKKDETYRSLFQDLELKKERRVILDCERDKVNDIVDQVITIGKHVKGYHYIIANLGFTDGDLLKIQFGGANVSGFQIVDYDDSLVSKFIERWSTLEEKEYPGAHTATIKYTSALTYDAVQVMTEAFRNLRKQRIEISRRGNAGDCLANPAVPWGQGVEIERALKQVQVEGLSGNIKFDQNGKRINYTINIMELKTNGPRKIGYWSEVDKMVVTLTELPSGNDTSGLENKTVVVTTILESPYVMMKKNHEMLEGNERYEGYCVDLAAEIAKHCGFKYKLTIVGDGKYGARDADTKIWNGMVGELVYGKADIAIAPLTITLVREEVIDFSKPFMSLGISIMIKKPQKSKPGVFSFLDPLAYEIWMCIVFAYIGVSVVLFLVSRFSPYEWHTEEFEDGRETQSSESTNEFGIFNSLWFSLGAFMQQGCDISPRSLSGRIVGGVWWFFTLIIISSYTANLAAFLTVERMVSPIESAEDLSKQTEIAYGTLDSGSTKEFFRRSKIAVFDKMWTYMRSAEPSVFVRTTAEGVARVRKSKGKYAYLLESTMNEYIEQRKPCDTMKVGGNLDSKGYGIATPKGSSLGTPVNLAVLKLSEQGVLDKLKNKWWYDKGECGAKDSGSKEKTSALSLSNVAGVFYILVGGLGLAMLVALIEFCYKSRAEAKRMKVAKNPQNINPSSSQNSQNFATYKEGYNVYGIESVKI
Assay Overview: Radioligand displacement ([3H]AMPA), Example 1
Type: binding
Measure Name: Ki

q: If you can, please state the reported Ki value of N[C@@H](C[C@]1(C(=O)O)C[C@H]2OC[C@@H](O)C[C@H]2O1)C(=O)O .
a: > 100 µM

###

Test System: GluR2(i) (Rattus norvegicus, UniProt P19491)
Construct: expressed in transfected cells; host or cells: HEK-293-T/17
Sequence (P19491 22-883 isoform P19491-2 limits assumed): as the sequence (P19491 22-883 isoform P19491-2 limits assumed) above
Assay Overview: Radioligand binding ([3H]AMPA displacement), HEK-293-T/17 membranes, Example 2
Condition Summary: Cheng-Prusoff, read-out: Ki GluR2(i)
Measure Name: Ki

q: Which Ki is reported with GluR2(i) (Rattus norvegicus, UniProt P19491) for this entry: NC(CC1(C(=O)O)CC2OCC(O)C(O)C2O1)C(=O)O (stereo not drawn) [8-epi-neoDH, 8-epi-neodysiherbaine] ?
a: 23 µM

q: Same for N[C@@H](C[C@@]1(C(=O)O)CC2OCC(O)C(O)C2O1)C(=O)O (single isomer, unassigned) [2,4-epi-neoDH, 2,4-epi-neodysiherbaine]
a: > 100 µM

q: Same for NC(CC1(C(=O)O)CC2OCC(O)C(O)C2O1)C(=O)O (stereo not drawn) [8,9-epi-neoDH, 8,9-epi-neodysiherbaine]
a: > 100 µM

q: Same for N[C@@H](C[C@]1(C(=O)O)C[C@H]2OCC[C@@H](O)[C@H]2O1)C(=O)O
a: > 100 µM

q: Same for N[C@@H](C[C@@]1(C(=O)O)CC2OCC(O)C(O)C2O1)C(=O)O (single isomer, unassigned) [4-epi-neoDH, 4-epi-neodysiherbaine]
a: > 30 µM

q: Same for NC(CC1(C(=O)O)CC2OCC(O)C(O)C2O1)C(=O)O (stereo not drawn) [9-epi-neoDH, 9-epi-neodysiherbaine]
a: > 100 µM

q: Same for NC(CC1(C(=O)O)CC2OCC(F)C(O)C2O1)C(=O)O (stereo not drawn) [9-F-8-epi-neoDH]
a: > 100 µM
